Test system: TK-10 renal
method.notes: NCI tumour cell line growth inhibition, 48 h
*1 amine or outer side, *2 acyl side, *3 side chain or, on linkers, in order; H or OH if unused. Where a SMILES comes first, the peptide text is derived from it. Bridges are numbered along the chain shown (N, C = ends). [ ]: non-standard residue; d: D form. The star is where a group is joined. X38 = CC[C@H](C)[C@@H](N[*:1])[C@@H](O)CC(=O)[*:2]; NMeY = CN[C@@H](Cc1ccc(O)cc1)C(=O)O; dNMeL = CN[C@H](CC(C)C)C(=O)O; Hiv = CC(C)[C@H](O)C(=O)O; Pyruvoyl = CC(=O)C(=O)*
A collection of compounds and their measured TGI

Tell me the measured TGI of CC[C@H](C)[C@H]1NC(=O)[C@@H](NC(=O)[C@@H](CC(C)C)N(C)C(=O)[C@@H]2CCCN2C(=O)C(C)=O)[C@@H](C)OC(=O)[C@H](Cc2ccc(OC)cc2)N(C)C(=O)[C@@H]2CCCN2C(=O)[C@H](CC(C)C)NC(=O)[C@H](C(C)C)OC(=O)C[C@@H]1O (Pyruvoyl-P[dNMeL]T[X38][Hiv]LP[NMeY](Me); ester 3-C) , please.
0.0643 µM

Tell me the measured TGI of COc1ccc(Cn2nc(-c3cc(OC)c(OC)c(OC)c3)c3c2CCc2cnoc2-3)cc1OC , please.
> 100 µM

Tell me the measured TGI of O=C1NC(N2CCOCC2)=N/C1=C\c1cccs1 , please.
> 100 µM

Tell me the measured TGI of CC1=NC(=O)C(C)(c2ccccc2)N1CCc1ccccc1 (stereo unspecified) , please.
> 100 µM

Tell me the measured TGI of CCCC(O)[C@@H](O)c1ccc2c(c1O)C(=O)c1c(OC)cccc1C2=O (stereo partly specified) , please.
> 100 µM

Tell me the measured TGI of CSC1=N[C@H](c2ccccc2)CS1 , please.
> 100 µM
